Tested on: monocistronic NK5.1 HCV replicon in Huh7 cells
Experiment: HCV replicon assay, monocistronic replicon cell line
Assay type: cell-based, hepatitis C virus
Details: Hepatitis C virus, Huh-7; monocistronic NK5.1 HCV replicon in Huh7 cells; median value; read-out: Mono EC50 Median
Source text: HCV Replicon Assays (Replicon EC50 (μM)) HCV replication can be measured by a replicon assay such as described by Vrolijk et al, J. Virol. Methods 110:201(2003), which is hereby incorporated in its entirety by reference. The method was implemented as follows. Monocistronic Replicon Cell Line: Human hepatocyte Huh7 cells containing the monocistronic NK5.1 replicon were obtained from Ralf Bartenschlager at the University of Mainz, Germany. […]
pEC50: −log10 of the molar value.
Mark y for reported pEC50 of 5 or greater; mark n for anything smaller.

Exercise: Does the compound CN(C)c1ccc(-c2nc(-c3ncccc3-c3ccccc3)no2)c(O)c1 have recorded pEC50 that is 5 or more?
Key: y

Exercise: Does the compound COc1ccc(O)c(-c2noc(-c3ccoc3)n2)c1 have recorded pEC50 that is 5 or more?
Key: n

Exercise: Does the compound Cc1cccc(-c2n[nH]c(-c3ccc(-c4ccccc4)c(F)c3)n2)n1 have recorded pEC50 that is 5 or more?
Key: n

Exercise: Does the compound COc1cc(O)c(-c2nc(-c3ncccc3C)no2)c(OC)c1 have recorded pEC50 that is 5 or more?
Key: y

Exercise: Does the compound Cc1cccc(-c2n[nH]c(-c3ccc(C(C)C)cc3)n2)n1 have recorded pEC50 that is 5 or more?
Key: n

Exercise: Does the compound COc1ccc(OC)c(-c2nc(-c3ccc(C(F)(F)F)cn3)no2)c1 have recorded pEC50 that is 5 or more?
Key: n

Exercise: Does the compound Cc1ccc(O)c(-c2nc(-c3ncccc3-c3ccccc3)no2)c1 have recorded pEC50 that is 5 or more?
Key: n

Exercise: Does the compound Oc1ccc2ccccc2c1-c1nc(-c2cnccc2C(F)(F)F)n[nH]1 have recorded pEC50 that is 5 or more?
Key: n

---

Test system: monocistronic NK5.1 HCV replicon in Huh7 cells
Experiment: HCV replicon assay, monocistronic replicon cell line
Assay type: cell-based, hepatitis C virus
Conditions: Hepatitis C virus, Huh-7; monocistronic NK5.1 HCV replicon in Huh7 cells; median value; read-out: Mono EC50 Median
Give measured EC50 for each item. Keep answers brief.

Exercise: Report EC50 for Oc1ccccc1-c1nnc(-c2ncccc2C(F)(F)F)o1 tested on monocistronic NK5.1 HCV replicon in Huh7 cells.
Key: > 32 µM

Exercise: Report EC50 for O=[N+]([O-])c1cccc(-c2nc(-c3ccccn3)n[nH]2)c1 tested on monocistronic NK5.1 HCV replicon in Huh7 cells.
Key: > 32 µM

Exercise: Report EC50 for Oc1ccccc1-c1nc(-c2ccc(C(F)(F)F)cn2)no1 tested on monocistronic NK5.1 HCV replicon in Huh7 cells.
Key: 19 µM

Exercise: Report EC50 for Clc1cccc(Cl)c1-c1nc(-c2ccccn2)n[nH]1 tested on monocistronic NK5.1 HCV replicon in Huh7 cells.
Key: > 19 µM

Exercise: Report EC50 for Brc1ccc(-c2nc(-c3nccc4ccccc34)n[nH]2)cc1 tested on monocistronic NK5.1 HCV replicon in Huh7 cells.
Key: > 19 µM

Exercise: Report EC50 for Cc1cccnc1-c1n[nH]c(-c2cccc([N+](=O)[O-])c2)n1 tested on monocistronic NK5.1 HCV replicon in Huh7 cells.
Key: 24 µM

Exercise: Report EC50 for Cc1ccc(O)c(-c2nc(-c3ccc(C(F)(F)F)cn3)no2)c1 tested on monocistronic NK5.1 HCV replicon in Huh7 cells.
Key: 7.5 µM

Exercise: Report EC50 for COc1ccc(-c2nc(-c3nccc4ccccc34)n[nH]2)c(O)c1 tested on monocistronic NK5.1 HCV replicon in Huh7 cells.
Key: > 19 µM

Exercise: Report EC50 for Brc1ccc(-c2nc(-c3ccccn3)n[nH]2)cc1 tested on monocistronic NK5.1 HCV replicon in Huh7 cells.
Key: > 19 µM

---

Tested on: monocistronic NK5.1 HCV replicon in Huh7 cells
Assay: HCV replicon assay, monocistronic replicon cell line
Assay type: cell-based, hepatitis C virus
Conditions: Hepatitis C virus, Huh-7; monocistronic NK5.1 HCV replicon in Huh7 cells; median value; read-out: Mono EC50 Median
Parameter: EC50 (µM)
Please give a number only; it is taken to be in µM.

Exercise: EC50 for COc1cc(Br)cc(-c2nc(-c3ncccc3C)no2)c1O ?
Key: 8.3

Exercise: EC50 for Cc1ccccc1-c1nnc(-c2ncc(C(F)(F)F)cc2Cl)o1 ?
Key: 20

Exercise: EC50 for O=[N+]([O-])c1ccc(O)c(-c2nc(-c3ccccn3)n[nH]2)c1 ?
Key: 14

Exercise: EC50 for Oc1c(Cl)cc(Cl)cc1-c1nc(-c2ccccn2)no1 ?
Key: 2.1

---

System: monocistronic NK5.1 HCV replicon in Huh7 cells
Assay: HCV replicon assay, monocistronic replicon cell line
Format: cell-based, hepatitis C virus
Conditions: Hepatitis C virus, Huh-7; monocistronic NK5.1 HCV replicon in Huh7 cells; median value; read-out: Mono EC50 Median
Give measured EC50 for each item. Keep answers brief.
Please give a number only; it is taken to be in µM.

Exercise: Report EC50 for CSc1ccc(O)c(-c2nc(-c3ncccc3C)no2)c1 tested on monocistronic NK5.1 HCV replicon in Huh7 cells.
Key: 0.2

Exercise: Report EC50 for COc1ccc(O)c(-c2nc(-c3ccc(N)cn3)no2)c1 tested on monocistronic NK5.1 HCV replicon in Huh7 cells.
Key: 9.2

Exercise: Report EC50 for COc1ccc(-c2nc(-c3ccc(NC(=O)OC(C)(C)C)cn3)no2)c(O)c1 tested on monocistronic NK5.1 HCV replicon in Huh7 cells.
Key: 1.9

Exercise: Report EC50 for Cc1ccccc1-c1nnc(-c2ccccc2C(F)(F)F)o1 tested on monocistronic NK5.1 HCV replicon in Huh7 cells.
Key: 20

---

Tested on: monocistronic NK5.1 HCV replicon in Huh7 cells
Assay: HCV replicon assay, monocistronic replicon cell line
Format: cell-based, hepatitis C virus
Conditions: Hepatitis C virus, Huh-7; monocistronic NK5.1 HCV replicon in Huh7 cells; median value; read-out: Mono EC50 Median
pEC50: −log10 of the molar value.
Mark Criterion met for reported pEC50 of 5 or greater; mark Criterion not met for anything smaller.

Exercise: Does the molecule Oc1ccc2ccccc2c1-c1nnc(-c2ncccc2C(F)(F)F)o1 [Compound 338] have recorded pEC50 that is 5 or more?
Key: Criterion not met

Exercise: Does the molecule Cc1ccccc1-c1nnc(-c2ccccc2)o1 [Compound 312, 2-Phenyl-5-o-tolyl-[1,3,4]oxadiazole] have recorded pEC50 that is 5 or more?
Key: Criterion not met

Exercise: Does the molecule Cc1cccnc1-c1n[nH]c(-c2c(O)ccc3ccccc23)n1 [Compound 461] have recorded pEC50 that is 5 or more?
Key: Criterion met

Exercise: Does the molecule Fc1cccc(Cl)c1-c1nc(-c2ccccn2)n[nH]1 [Compound 436] have recorded pEC50 that is 5 or more?
Key: Criterion not met

Exercise: Does the molecule COc1ccc(F)c(-c2nc(-c3nccc4ccccc34)n[nH]2)c1 [Compound 383] have recorded pEC50 that is 5 or more?
Key: Criterion not met

Exercise: Does the molecule Oc1ccc2ccccc2c1-c1nnc(-c2c(Cl)cccc2Cl)o1 [Compound 310] have recorded pEC50 that is 5 or more?
Key: Criterion met

Exercise: Does the molecule CC(C)c1ccc(-c2nc(-c3cnccc3C(F)(F)F)n[nH]2)cc1 [Compound 428] have recorded pEC50 that is 5 or more?
Key: Criterion not met

Exercise: Does the molecule COc1ccc(-c2nc(-c3ncccc3OC)no2)c(O)c1 [Compound 247] have recorded pEC50 that is 5 or more?
Key: Criterion met

---

System: monocistronic NK5.1 HCV replicon in Huh7 cells
Test: HCV replicon assay, monocistronic replicon cell line
Type: cell-based, hepatitis C virus
Conditions: Hepatitis C virus, Huh-7; monocistronic NK5.1 HCV replicon in Huh7 cells; median value; read-out: Mono EC50 Median
Parameter: log10(EC50) (log10 of the value in nM)
Each number you see is log10 of EC50, and the unit inside the log is nM.

Exercise: Report log10(EC50) for Fc1cc(-c2nc(-c3cnccc3C(F)(F)F)n[nH]2)ccc1-c1ccccc1 tested on monocistronic NK5.1 HCV replicon in Huh7 cells.
Key: 4.23

Exercise: Report log10(EC50) for Oc1ccc2ccccc2c1-c1nc(-c2ncccc2Br)no1 tested on monocistronic NK5.1 HCV replicon in Huh7 cells.
Key: 3.32

Exercise: Report log10(EC50) for Cc1cccnc1-c1noc(-c2ccc(NC(=O)OC(C)(C)C)cc2O)n1 tested on monocistronic NK5.1 HCV replicon in Huh7 cells.
Key: 2.85

Exercise: Report log10(EC50) for COc1ccc(-c2nc(-c3ncccc3-c3ccccc3)no2)c(O)c1 tested on monocistronic NK5.1 HCV replicon in Huh7 cells.
Key: 3.36

Exercise: Report log10(EC50) for Brc1ccccc1-c1nc(-c2nccc3ccccc23)n[nH]1 tested on monocistronic NK5.1 HCV replicon in Huh7 cells.
Key: 3.43

Hey, just so you know, these numbers are from patent US20050075375A1.
